ASSAY_TARGET: HLA-A*03:01
PROTOCOL_NOTES: IEDB peptide-MHC binding, purified MHC/competitive/fluorescence; filed as Kd, often an IC50 or EC50 that approximates it; bounds were set here for any values at or beyond the usual limits of such assays
CONDITION_DETAILS: source organism: Influenza A virus (A/Swine/Minnesota/55551/2000(H1N2))
ENDPOINT_LABEL: pKd
# pKd = -log10(concentration in molar units)

Item under review: MVTRFESLK . Reported pKd?
6.79

###

ASSAY_TARGET: HLA-A*69:01
PROTOCOL_NOTES: IEDB peptide-MHC binding, purified MHC/direct/fluorescence; filed as Kd, often an IC50 or EC50 that approximates it; bounds were set here for any values at or beyond the usual limits of such assays
CONDITION_DETAILS: source organism: Rickettsia canadensis
ENDPOINT_LABEL: Kd

Item under review: SSEADCFTY . Reported Kd?
≥ 20 µM
